Measured Target: Sodium-dependent dopamine transporter (Rattus norvegicus, UniProt P23977)
Sequence (P23977 whole entry): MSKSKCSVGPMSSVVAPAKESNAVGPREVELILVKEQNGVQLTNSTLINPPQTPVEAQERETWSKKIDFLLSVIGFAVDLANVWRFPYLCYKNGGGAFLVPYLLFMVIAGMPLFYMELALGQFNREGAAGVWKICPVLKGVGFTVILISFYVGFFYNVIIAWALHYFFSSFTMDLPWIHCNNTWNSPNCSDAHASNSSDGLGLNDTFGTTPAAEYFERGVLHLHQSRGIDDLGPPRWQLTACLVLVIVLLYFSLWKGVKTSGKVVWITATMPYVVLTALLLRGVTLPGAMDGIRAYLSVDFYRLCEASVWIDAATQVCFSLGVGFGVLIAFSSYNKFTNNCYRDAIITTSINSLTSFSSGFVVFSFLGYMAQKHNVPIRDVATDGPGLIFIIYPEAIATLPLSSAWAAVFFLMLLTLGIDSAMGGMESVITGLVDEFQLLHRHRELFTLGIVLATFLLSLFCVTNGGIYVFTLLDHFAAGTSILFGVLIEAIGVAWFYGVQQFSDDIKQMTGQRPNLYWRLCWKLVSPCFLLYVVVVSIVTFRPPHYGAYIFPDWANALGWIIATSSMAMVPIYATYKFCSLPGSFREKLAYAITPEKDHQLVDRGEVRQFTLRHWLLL
Measurement Description: Inhibition of [3H]3-beta-(p-fluorophenyl)tropane-2beta-carboxylic acid methyl ester binding to Dopamine transporter in rat striatal membranes.
Endpoint Label: log10 of IC50 (log10 of the value in nM)
Each number you see is log10 of IC50, and the unit inside the log is nM.

Observe how each entry below is paired with its result.
Compound	log10 of IC50
CN1C2CC[C@@H]1C[C@H](OC(=O)c1ccccc1)C2C(=O)OCCc1ccc(NC(=O)CBr)cc1 (stereo not given in full)	1.79
CNC(=O)C1C2CC[C@H](C[C@@H]1OC(=O)c1ccccc1)N2C (stereo not given in full)	3.50
CN1C2CC[C@@H]1C[C@H](OC(=O)c1ccccc1)C2C(=O)OCc1ccccc1 (stereo not given in full)	2.41

**Query** Could you tell me which log10 of IC50 is on file for CN1C2CC[C@@H]1C[C@H](OC(=O)c1ccccc1)C2C(=O)OCCc1ccc(N=C=S)cc1 (stereo not given in full) ?
**Result** 2.29

**Query** # repeat for CN1C2CC[C@@H]1C[C@H](OC(=O)c1ccccc1)C2C(=O)OCCc1ccc(N)cc1 (stereo not given in full)
**Result** 1.86
